Where do the numbers come from? From patent US7507730B2.

biological target: UniProt P22460; assay: Kv1.5 inhibition assay (IKur inhibitor assay per cited references); format: cell-based; details: given as % inhibition, value given as a concentration in μM; read-out: Kv1.5% inhibition
Sequence (P22460 whole entry): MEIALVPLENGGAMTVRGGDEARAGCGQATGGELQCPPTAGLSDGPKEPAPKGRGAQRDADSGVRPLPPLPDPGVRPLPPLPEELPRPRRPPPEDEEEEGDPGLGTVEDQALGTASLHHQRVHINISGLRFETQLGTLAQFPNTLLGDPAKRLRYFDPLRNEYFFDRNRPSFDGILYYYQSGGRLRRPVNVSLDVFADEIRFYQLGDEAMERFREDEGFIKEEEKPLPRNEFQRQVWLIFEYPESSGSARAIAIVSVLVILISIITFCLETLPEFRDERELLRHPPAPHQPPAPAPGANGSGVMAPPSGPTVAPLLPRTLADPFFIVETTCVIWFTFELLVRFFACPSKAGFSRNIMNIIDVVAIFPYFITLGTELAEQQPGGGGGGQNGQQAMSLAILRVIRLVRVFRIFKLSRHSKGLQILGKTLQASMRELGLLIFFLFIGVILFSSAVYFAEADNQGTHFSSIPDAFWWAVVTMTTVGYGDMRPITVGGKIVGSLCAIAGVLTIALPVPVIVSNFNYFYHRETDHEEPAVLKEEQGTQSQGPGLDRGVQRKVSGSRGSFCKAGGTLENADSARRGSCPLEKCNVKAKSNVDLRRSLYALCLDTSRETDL
measure: IC50 (µM)
Respond with the bare value in µM.

Examples with answers:
# compound, IC50 [µM]
records = [
    ("COc1ccc(S(=O)(=O)N(C)C(=O)C2=C(C)Nc3cc(C)nn3C2c2ccc(Cl)c(Cl)c2)cc1 (single isomer, unassigned) [Example 81 Isomer 2]", 0.098),
    ("COc1ccc(S(=O)(=O)N(C)C(=O)C2=C(C)Nc3cc(C)nn3C2c2ccc(Cl)c(Cl)c2)cc1 (racemic) [Example 77]", 0.172),
]

# context switch: different compound, same IC50
Any idea what IC50 was measured for CC1=C(C(=O)N(C)S(=O)(=O)c2ccccc2)C(c2ccc(Cl)c(Cl)c2)n2nc(C)cc2N1 (racemic) ? 0.164
